assay-remarks: viability loss in pontine glioma line – cell-based, SU-DIPG-XIII, MIPE5.0, CellTiter-Glo, qHTS, dose response (AID 1347064);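 on AC50: cells exposed to compound for 48 hours before the viability read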
test-settings: CellTiter-Glo ATP luminescence
Records with an inconclusive call do not appear. Calls of active or inactive are those of the source. Cut-off not given; nearly all actives show AC50 up to about 23 µM.
assay-readout: AC50

| compound | AC50 |
| --- | --- |
| COc1cc2c(Oc3ccc(NC(=O)C4(C(=O)Nc5ccc(F)cc5)CC4)cc3F)ccnc2cc1OCCCN1CCOCC1 | 3720 nM (active) |
| CC(=O)c1cnc2ccc(-c3cc(Cl)c(O)c(Cl)c3)nc2c1NC1CCC(CN(C)C)CC1 (centres undefined) | 171 nM (active) |
| CN(C(=O)c1ccc(F)cc1C(F)(F)F)C1CCN(c2nnc(-c3ccnn3C)c3ccccc23)CC1 | inactive |
| CC(C)[C@H](O)C(=O)N[C@@H](C)C(=O)N[C@@H]1C(=O)N(C)CCc2ccccc21 | inactive |
| CC(=O)NCC(=O)N1[C@@H]2CC[C@H]1c1ccc(Nc3ncc(C(F)(F)F)c(NC4CCC4)n3)cc12 | 661 nM (active) |
| CCC[C@H](Nc1nc(-c2ccc(NC(=O)NCC)c(OC)c2)ncc1C)c1cccnc1 | 186 nM (active) |
| O=C(NC[C@H](O)CO)c1ccncc1Nc1ccc(I)cc1F | 417 nM (active) |
| CN1CCN(Cc2ccc(Nc3ncc(Cl)c(Nc4ccccc4S(=O)(=O)N(C)C)n3)cc2)CC1 | 241 nM (active) |

Query (compound): `c1ccc(-c2cc(CCC3CCNCC3)c3ccccc3n2)cc1` ; field requested: AC50
23500 nM (active)

Query (compound): `Cn1cc(-c2cnc3ccc4ccc(CS(=O)(=O)NCc5ccccn5)cc4c(=O)c3c2)cn1` ; field requested: AC50
inactive

Query (compound): `O=c1cc(CN2CCOCC2)occ1OCCCCCSc1ccnc2cc(C(F)(F)F)ccc12` ; field requested: AC50
18600 nM (active)

Query (compound): `CCc1nc(C(N)=O)c(Nc2ccc(N3CCC(N4CCN(C)CC4)CC3)c(OC)c2)nc1NC1CCOCC1` ; field requested: AC50
1180 nM (active)

Query (compound): `OCc1ccc(-c2ccc(-c3ccc(CO)s3)o2)s1` ; field requested: AC50
16600 nM (active)

Query (compound): `Cc1cc(SCc2sc(-c3ccc(C(F)(F)F)cc3)nc2C)ccc1OCC(=O)O` ; field requested: AC50
inactive
